- TEST METHOD NOTES: physchem
- Description: Ionization constant (pKa)
// 0 (no) strictly below 5 in pKa; 1 (yes) otherwise

Has `CC(C)=CCN1CC[C@@]2(C)c3cc(O)ccc3C[C@@H]1[C@@H]2C` a recorded pKa greater than or equal to 5?
1 (yes)

Has COc1cc(NC(C)CCCN)c2ncccc2c1 (configuration not stated) [PRIMAQUINE] a recorded pKa greater than or equal to 5?
1 (yes)

Has CNC(=C[N+](=O)[O-])NCCSCc1csc(CN(C)C)n1 [NIZATIDINE] a recorded pKa greater than or equal to 5?
1 (yes)

Has Cc1[nH]c(=O)c(C#N)cc1-c1ccncc1 [MILRINONE] a recorded pKa greater than or equal to 5?
1 (yes)

Has CCCCNC(=O)NS(=O)(=O)c1ccc(C)cc1 [TOLBUTAMIDE] a recorded pKa greater than or equal to 5?
1 (yes)

Has Cc1ccc(C)c(OCCCC(C)(C)C(=O)O)c1 [GEMFIBROZIL] a recorded pKa greater than or equal to 5?
0 (no)

These measurements were taken from ChEMBL document CHEMBL1133765.
